System: ATP;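 note: ATP exposure 15 min at 22 °C before imaging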
Assay: switch fluorescence ratio, 500 uM ATP over buffer (Cy3 cluster intensity, sum of 5 cycles each) (fold (ratio)); higher = stronger signal-on switching upon ATP binding; sequences stand for … in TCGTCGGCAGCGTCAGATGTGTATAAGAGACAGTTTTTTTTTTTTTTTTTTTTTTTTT…TC
Conditions: aptamer strand: ATP DNA aptamer (quencher-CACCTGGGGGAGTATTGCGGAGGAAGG + anchor), 100 nM annealed; ATP concentration: 500 uM
Criterion: switch fluorescence ratio meeting or surpassing 1. Met: Fulfilled. Not met: Not fulfilled.

Some entries whose results are on file:
TAAGTGGG = Not fulfilled
TTTGGCTGGA = Fulfilled
TTTCAGGGGA = Fulfilled
GATGCTAGAC = Fulfilled
TTGAGGGCAT = Fulfilled

Ask | Check this sequence for switch fluorescence ratio at or above 1: `CGACCACTTT`
Reply | Fulfilled

Ask | Check this sequence for switch fluorescence ratio at or above 1: `ATTAATATCA`
Reply | Not fulfilled

Ask | Check this sequence for switch fluorescence ratio at or above 1: `GCGCGGGAAC`
Reply | Fulfilled
